Experiment: Assessment of sorafenib elimination in cultured HCC cells (LC-MS/MS)
Format: in vitro ADME
Settings: human, SMMC-7721 cells (HCC cell line); SMMC-7721, control; read-out: t1/2 values (converted)
Method: HCC cells were used to examine the rate of elimination of sorafenib ([18], [19], [34], [35]). For cell-based experiments, HCC cells were treated with 1 μmol/L of sorafenib for 12 h. After treatment, the cells were harvested at a series of time-points. […] The sustaining amount of sorafenib at each time-point was measured using liquid chromatography–mass spectrometry/mass spectrometry (LC-MS/MS) and the in vitro/in vivo half-life of sorafenib was determined ([18], [19], [34], [35]). […]
REPORTED_PROPERTY: half-life at 1 μmol/L (h)
Give just the numeric value; h need not be written.

QUERY: Name the reported half-life at 1 μmol/L value associated with the molecule `CNC(=O)c1cc(Oc2ccc(NC(=O)Nc3ccc(Cl)c(C(F)(F)F)c3)cc2)ccn1`
RESULT: 25.7

====

Test: in vitro
Conditions: human, MHCC97-H cells (HCC cell line) with miR-4277 + CYP3A4^Mut
Method: HCC cells were used to examine the rate of elimination of sorafenib ([18], [19], [34], [35]). For cell-based experiments, HCC cells were treated with 1 μmol/L of sorafenib for 12 h. After treatment, the cells were harvested at a series of time-points. […] The sustaining amount of sorafenib at each time-point was measured using liquid chromatography–mass spectrometry/mass spectrometry (LC-MS/MS) and the in vitro/in vivo half-life of sorafenib was determined ([18], [19], [34], [35]). […]
REPORTED_PROPERTY: half-life at 1 μmol/L (h)
Give just the numeric value; h need not be written.

QUERY: Name the reported half-life at 1 μmol/L value associated with the compound `CNC(=O)c1cc(Oc2ccc(NC(=O)Nc3ccc(Cl)c(C(F)(F)F)c3)cc2)ccn1`
RESULT: 19.9

====

assay: Assessment of sorafenib elimination in cultured HCC cells (LC-MS/MS); assay type: in vitro ADME; settings: human, HepG2 cells (HCC cell line) with miR-4277 + CYP3A4^Mut; HepG2, miR-4277 + CYP3A4^Mut; read-out: t1/2 values (converted)
REPORTED_PROPERTY: half-life at 1 μmol/L (h)
Give just the numeric value; h need not be written.

QUERY: Name the reported half-life at 1 μmol/L value associated with the molecule CNC(=O)c1cc(Oc2ccc(NC(=O)Nc3ccc(Cl)c(C(F)(F)F)c3)cc2)ccn1 [Sorafenib]
RESULT: 25.7

====

Assay: in vitro
Details: human
Method: HCC cells were used to examine the rate of elimination of sorafenib ([18], [19], [34], [35]). For cell-based experiments, HCC cells were treated with 1 μmol/L of sorafenib for 12 h. After treatment, the cells were harvested at a series of time-points. […] The sustaining amount of sorafenib at each time-point was measured using liquid chromatography–mass spectrometry/mass spectrometry (LC-MS/MS) and the in vitro/in vivo half-life of sorafenib was determined ([18], [19], [34], [35]). […]
REPORTED_PROPERTY: half-life at 1 μmol/L
Provide a numeric answer, followed by its unit.

QUERY: Name the reported half-life at 1 μmol/L value associated with the compound CNC(=O)c1cc(Oc2ccc(NC(=O)Nc3ccc(Cl)c(C(F)(F)F)c3)cc2)ccn1 [Sorafenib]
RESULT: 21.6 h

====

test: Assessment of sorafenib elimination in cultured HCC cells (LC-MS/MS); assay type: in vitro ADME; conditions: human, HepG2 cells (HCC cell line); HepG2, control; read-out: t1/2 values (converted)
REPORTED_PROPERTY: half-life at 1 μmol/L (h)
Give just the numeric value; h need not be written.

QUERY: Name the reported half-life at 1 μmol/L value associated with the molecule `CNC(=O)c1cc(Oc2ccc(NC(=O)Nc3ccc(Cl)c(C(F)(F)F)c3)cc2)ccn1`
RESULT: 30.3

====

assay: Assessment of sorafenib elimination in cultured HCC cells (LC-MS/MS); type: in vitro ADME; settings: human, BEL-7402 cells (HCC cell line) with miR-4277; BEL-7402, miR-4277; read-out: t1/2 values (converted)
REPORTED_PROPERTY: half-life at 1 μmol/L (h)
Give just the numeric value; h need not be written.

QUERY: Name the reported half-life at 1 μmol/L value associated with the compound `CNC(=O)c1cc(Oc2ccc(NC(=O)Nc3ccc(Cl)c(C(F)(F)F)c3)cc2)ccn1`
RESULT: 42.4

====

tested on: MHCC97-H cells; assay: Assessment of cell survival (MTT); format: cell-based; settings: Homo sapiens, MHCC97H, 48 h, MHCC97-H cells, miR-4277, read-out: IC50 of Sorafenib
REPORTED_PROPERTY: IC50 (nM)
Give just the numeric value; nM need not be written.

QUERY: Identify the measured IC50 of CNC(=O)c1cc(Oc2ccc(NC(=O)Nc3ccc(Cl)c(C(F)(F)F)c3)cc2)ccn1 [Sorafenib] for MHCC97-H cells.
RESULT: 150

====

test: Assessment of sorafenib elimination in cultured HCC cells (LC-MS/MS); assay type: in vitro ADME; settings: human, SMMC-7721 cells (HCC cell line) with miR-4277 + CYP3A4^Mut; SMMC-7721, miR-4277 + CYP3A4^Mut; read-out: t1/2 values (converted)
REPORTED_PROPERTY: half-life at 1 μmol/L (h)
Give just the numeric value; h need not be written.

QUERY: Name the reported half-life at 1 μmol/L value associated with the compound CNC(=O)c1cc(Oc2ccc(NC(=O)Nc3ccc(Cl)c(C(F)(F)F)c3)cc2)ccn1 [Sorafenib]
RESULT: 27.4

====

Assay: Assessment of sorafenib elimination in cultured HCC cells (LC-MS/MS)
Assay type: in vitro ADME
Settings: human, HepG2 cells (HCC cell line) with miR-4277; HepG2, miR-4277; read-out: t1/2 values (converted)
Description: HCC cells were used to examine the rate of elimination of sorafenib ([18], [19], [34], [35]). For cell-based experiments, HCC cells were treated with 1 μmol/L of sorafenib for 12 h. After treatment, the cells were harvested at a series of time-points. […] The sustaining amount of sorafenib at each time-point was measured using liquid chromatography–mass spectrometry/mass spectrometry (LC-MS/MS) and the in vitro/in vivo half-life of sorafenib was determined ([18], [19], [34], [35]). […]
REPORTED_PROPERTY: half-life at 1 μmol/L (h)
Give just the numeric value; h need not be written.

QUERY: Name the reported half-life at 1 μmol/L value associated with the molecule CNC(=O)c1cc(Oc2ccc(NC(=O)Nc3ccc(Cl)c(C(F)(F)F)c3)cc2)ccn1 [Sorafenib]
RESULT: 56.4

====

tested on: BEL-7402; assay: Assessment of cell survival (MTT); format: cell-based; details: Homo sapiens, Bel-7402, 48 h, BEL-7402, miR-4277
REPORTED_PROPERTY: IC50 (nM)
Give just the numeric value; nM need not be written.

QUERY: Name the reported IC50 value associated with the compound `CNC(=O)c1cc(Oc2ccc(NC(=O)Nc3ccc(Cl)c(C(F)(F)F)c3)cc2)ccn1`
RESULT: 280
